Tested on: CD2F1 mice, L1210 leukemia ip, survival T/C
Test: NCI In Vivo Anticancer Drug Screen. Data for tumor model L1210 Leukemia (intraperitoneal) in CD2F1 (CDF1) mice
Conditions: endpoint: mean survival time; dose: 6.25 mg/kg/injection; schedule: Q04DX002 (ip); vehicle: saline with Tween-80; higher = longer survival
Description: The antitumor activity of compounds was measured in mice bearing transplantable tumors. Survival or tumor size were measured and the results are expressed as the measurement made in the treated group (T) divided by the measurement made in the vehicle treated control group (C). The tumor model used in this assay is L1210 Leukemia (intraperitoneal) in CD2F1 (CDF1) mice
Inconclusive results and toxic doses are left out.
Record form. Attribute: T/C. Fill in for each entry.

Give the measured T/C for CC(CN=Cc1ccccc1[NH-])N=Cc1ccccc1[NH-].[Ni+2] (centres undefined)
94 % of control

Specify measured T/C for CCCC(P(=O)(c1ccccc1)c1ccccc1)[P+](CC)(c1ccccc1)c1ccccc1 (centres undefined) .
100 % of control

Quickly give me recorded T/C for `Nc1[nH]c(=S)[nH]c(=O)c1N`
102 % of control

As a next step, examine the compound that follows.
Output T/C of `O=C1C(=O)c2ccccc2-c2ccccc21.O=C1C(=O)c2ccccc2-c2ccccc21.[Hg]`
113 % of control

* * *

tested on: CD2F1 mice, L1210 leukemia ip, survival T/C; assay: NCI In Vivo Anticancer Drug Screen. Data for tumor model L1210 Leukemia (intraperitoneal) in CD2F1 (CDF1) mice; settings: endpoint: median survival time; dose: 25.0 mg/kg/injection; schedule: Q01DX005 (ip); vehicle: saline with Tween-80; higher = longer survival
Inconclusive results and toxic doses are left out.
PARAMETER MEASURED: T/C

Reference set, count: 3
Give the measured T/C for CS(=O)(=O)OCC1OC(n2ccc(NC(=O)c3ccccc3)nc2=O)CC1OS(C)(=O)=O (centres undefined)
100 % of control

Provide measured T/C value, entry: O=c1cc(CCl)n2cnc3c(ncn3C3OC(CO)C(O)C3O)c2n1 (centres undefined)
102 % of control

Quick one: give measured T/C for OC1OCC(COc2ccc(Cl)cc2)OC1O (centres undefined)
102 % of control

Others:
Give reported T/C value for N#Cc1nn(C2OC(COC(=O)c3ccccc3)C(OC(=O)c3ccccc3)C2OC(=O)c2ccccc2)c2nc[nH]c(=O)c12 (centres undefined)
103 % of control

* * *

test system: CD2F1 mice, L1210 leukemia ip, survival T/C; test: NCI In Vivo Anticancer Drug Screen. Data for tumor model L1210 Leukemia (intraperitoneal) in CD2F1 (CDF1) mice; details: endpoint: mean survival time; dose: 12.5 mg/kg/injection; schedule: Q01DX009 (ip); vehicle: saline
Toxic doses and inconclusive results are not listed. The calls were made as follows: active = survival T/C of 150% or more; inactive = T/C below 125% in these data.
Form entry, call: pick from class 1 = active, class 0 = inactive

Which outcome was entered for the compound OCC1OC(n2cnc3c([Se]Cc4ccccn4)ncnc32)C(O)C1O (configuration not stated) in this test?
class 0

What outcome does the record of this test show for `O=P(N1CCOCC1)(N1CC1)N1CC1` ?
class 1

Give the logged outcome of this assay for the following compound: `CNN=C1CCCC1`
class 0

Assay result, entry `C[N+](C)(C)C.[Cl][Fe]([Cl])([Cl])[Cl]` — outcome?
class 0

Answer briefly: the call reported for CO[C@]12[C@@H](COC(=O)NCCO)C3=C(C(=O)C(C)=C(N)C3=O)N1C[C@@H]1[C@H]2N1C (some centres not stated) in this assay.
class 0

Record request — test call for `COc1cc(-c2ccc(N=Nc3ccc4c(S(=O)(=O)O)cc(S(=O)(=O)O)c(N)c4c3O)c(OC)c2)ccc1N=Nc1ccc2c(S(=O)(=O)O)cc(S(=O)(=O)O)c(N)c2c1O`
class 0

Given `CC(=O)Oc1ccc2c(c1)C(=O)CCCCCC(=O)O2` , state the outcome it received in this test.
class 0

* * *

Kindly supply the reported T/C values for the records listed here.
tested on: CD2F1 mice, L1210 leukemia ip, survival T/C; experiment: NCI In Vivo Anticancer Drug Screen. Data for tumor model L1210 Leukemia (intraperitoneal) in CD2F1 (CDF1) mice; settings: endpoint: mean survival time; dose: 400.0 mg/kg/injection; schedule: Q01DX009 (ip); vehicle: saline with Tween-80; higher = longer survival
Inconclusive results and toxic doses are left out.

These recorded examples may help you get a feel for the data.
Supply reported T/C belonging to this molecule: O=C(O)CCCCCCCCC1CC(F)(F)C(F)(F)S1 (stereo unspecified)
95 % of control

Supply reported T/C belonging to this molecule: `CCOC(=O)c1ccc(NC(=O)N2CCC(CCCc3ccccc3)CC2)cc1`
93 % of control

Tell us which T/C value is on record for CCOC(=O)C(C(C)=O)C(c1ccc(OC)cc1)C(C(C)=O)C(=O)OCC (stereo unspecified)
92 % of control

Give the measured T/C for `CCOc1ccc(N=[N+]([O-])c2ccc(OCC)cc2)cc1`
96 % of control

Batch request: T/C per item, same order as input.
1. COC(=O)CC(=O)c1ccc(OC(C)C)cc1
2. COc1cc([N+](=O)[O-])ccc1NC(=O)Oc1ccccc1F
3. NC1=NC2OC(CO)C(O)C2O1 (stereo unspecified)
4. Cc1ccc(C(=O)C2CC(Br)C(Br)CC2C(=O)c2ccc(C)cc2)cc1 (stereo unspecified)
5. CCCCCCCCCCCCCCCCSC(=S)OCC
6. COC(OC)c1ccc(Cl)nc1
7. CC(=O)Nc1ccc([N+](=O)[O-])cc1

["104 % of control", "108 % of control", "102 % of control", "86 % of control", "95 % of control", "92 % of control", "111 % of control"]

* * *

test system: CD2F1 mice, L1210 leukemia ip, survival T/C; assay: NCI In Vivo Anticancer Drug Screen. Data for tumor model L1210 Leukemia (intraperitoneal) in CD2F1 (CDF1) mice; conditions: endpoint: mean survival time; dose: 12.5 mg/kg/injection; schedule: Q04DX003 (ip); vehicle: saline; higher = longer survival
Toxic doses and inconclusive results are not listed.
PARAMETER MEASURED: T/C

# return recorded T/C for input `CCC(C(=O)O)C(=O)O.[NH2-].[NH2-].[Pt+2]`
101 % of control

Need T/C for each of these compounds.
1. CS(C)=O.CS(C)=O.[Cl][Rh]([Cl])([Cl])[Cl]
2. CC(=O)Oc1ccc2c(c1)C(=O)CCCCCC(=O)O2
3. c1ccc2c[n+]3cc4ccccc4cc3cc2c1
4. CC(=O)OC(CC(=O)CC(O)(C(F)(F)F)C(F)(F)F)(C(F)(F)F)C(F)(F)F
5. O=C(NCc1ccccc1)C1C2CC3OC(=O)C1C3C2 (configuration not stated)
6. COc1ccc2c(c1OC)C1C3CC=CC3C2C2=[N+]1CCc1cc3c(cc12)OCO3 (configuration not stated)

["100 % of control", "97 % of control", "104 % of control", "98 % of control", "106 % of control", "97 % of control"]

* * *

test system: CD2F1 mice, L1210 leukemia ip, survival T/C; assay: NCI In Vivo Anticancer Drug Screen. Data for tumor model L1210 Leukemia (intraperitoneal) in CD2F1 (CDF1) mice; conditions: endpoint: mean survival time; dose: 25.0 mg/kg/injection; schedule: Q01DX009 (ip); vehicle: other; higher = longer survival
Toxic doses and inconclusive results are not listed.
PARAMETER MEASURED: T/C

Worked cases, T/C given:
// Input: `[N-]=[N+]=CC(=O)CCC(=O)C=[N+]=[N-]` . Output its T/C only.
90 % of control

Name the recorded T/C of the compound listed here: `COc1ccc2nc3cc(Cl)ccc3c(Nc3ccc(NC(C)=O)cc3)c2n1`
92 % of control

Kindly indicate its recorded T/C. Item: `CSc1ccnc2ccccc12`
100 % of control

Identify measured T/C associated with `COc1ccc(OC)c2c1CCC(=O)C2`
104 % of control

Give the reported value of T/C for this record: `NCCN1c2ccccc2Sc2ccccc21`
98 % of control

Next compound, T/C to be filled in.
Supply T/C value. Item: `Cc1ccc(N2CCOC2=O)cc1N1CCOC1=O`
100 % of control

* * *

test system: CD2F1 mice, L1210 leukemia ip, survival T/C; experiment: NCI In Vivo Anticancer Drug Screen. Data for tumor model L1210 Leukemia (intraperitoneal) in CD2F1 (CDF1) mice; conditions: endpoint: mean survival time; dose: 100.0 mg/kg/injection; schedule: Q04DX003 (ip); vehicle: saline with Tween-80; higher = longer survival
Toxic doses and inconclusive results are not listed.
PARAMETER MEASURED: T/C

Below are worked cases with known answers.
Supply measured T/C of `Nc1c([N+](=O)[O-])ccc2ccccc12` in your reply.
93 % of control

Read the entry `C=C(CC(=O)O)C(=O)O` and write its reported T/C.
93 % of control

Please give the documented T/C of `C=CCNc1n[nH]c(=S)s1`
100 % of control

// batch mode: one T/C value per listed entry
1. CC(=O)CC(=O)c1ccccc1.CC(=O)CC(=O)c1ccccc1.CC(=O)CC(=O)c1ccccc1.[Tb]
2. CCCCNC(=O)C1C2CCC(C2)C1C(=O)NCCCC (stereo not given)
3. Cc1cc(=O)n(C)c2ccccc12
4. O=C([O-])c1ccccc1[I+]c1ccccc1
5. NC(=O)COc1c(I)cc(I)cc1I
6. O=C1CCc2cccc(O)c21
7. CC(c1ccccc1)c1ccc(O)cc1 (stereo not given)

1. 93 % of control
2. 98 % of control
3. 103 % of control
4. 103 % of control
5. 98 % of control
6. 101 % of control
7. 103 % of control

Hi, could you look up T/C for each item in my list?
1. CC(C)c1cc(C(C)C)n2nc(N)nc2n1
2. CN(Cc1ccccc1)c1ccc2nc(N)nc(N)c2c1
3. CCCCCCCCc1ccc(O)c(Cl)c1
4. Nc1ccc(N=Nc2ccc(S(=O)(=O)O)cc2)cc1
5. CC(C)=CC(C)OC(=O)N(C)C (stereo not given)
6. CC1SC(=S)N(c2ccccc2)C1=O (stereo not given)
7. N=C(N)[Se]
8. OC1C=CC2CC1C2 (stereo not given)

106 % of control
103 % of control
94 % of control
97 % of control
97 % of control
112 % of control
95 % of control
95 % of control

Give T/C for each listed item.
1. CCCCC1CCCCC1
2. COc1ccccc1NC(=O)Oc1ccc(OCc2ccccc2)cc1
3. CC(=O)CC(C)=O.CC(=O)CC(C)=O.CC(=O)CC(C)=O.CC(=O)CC(C)=O.[Hf]
4. COC(=O)CCC(NC(=O)c1cccc(N(C)C=O)c1)C(=O)OC (stereo not given)
5. c1ccc(NC2=NCCO2)cc1
6. O=[N+]([O-])C1C2C=CC(C2)C1c1ccccc1 (stereo not given)
7. CCc1c(Br)c(CC)c(Br)c(CC)c1Br

["95 % of control", "108 % of control", "86 % of control", "100 % of control", "93 % of control", "98 % of control", "98 % of control"]
